test: Cytotoxicity in MDBK cells (no BVD virus added); details: bovine, MDBK cells (Madin-Darby bovine kidney), no virus added
quantity: CC50 at 4 days

Would you please look over these solved cases?
smiles_string: Fc1ccccc1-c1cc2cn(Cn3nnc4ccccc43)ccc-2n1
quantity: CC50 at 4 days
endpoint_result: 19 µM

smiles_string: COc1ccccc1-c1nc2ccn(Cn3nnc4ccccc43)cc-2n1
quantity: CC50 at 4 days
endpoint_result: > 50 µM

smiles_string: N#Cc1ccc(-c2nc3ccn(Cc4cc(-c5cc(F)ccc5F)no4)cc-3n2)cc1
quantity: CC50 at 4 days
endpoint_result: > 50 µM

smiles_string: COc1ncccc1-c1cc2cn(Cn3nnc4ccccc43)ccc-2n1
quantity: CC50 at 4 days
endpoint_result: 32 µM

smiles_string: CN(C)c1cccc(-c2nc3ccn(Cc4cc(-c5cc(F)ccc5F)no4)cc-3n2)c1
quantity: CC50 at 4 days
endpoint_result: > 50 µM

smiles_string: Cc1ccc2nc(Cn3ccc4nc(-c5ccccc5CO)nc-4c3)sc2c1
quantity: CC50 at 4 days
endpoint_result: > 50 µM

[ask] For the compound Cc1ccc2nc(Cn3ccc4nc(-c5ccccc5CO)cc-4c3)sc2c1 , what CC50 at 4 days is on record?
[reply] 20 µM

[ask] Tell me the measured CC50 at 4 days of Cc1nc(Cn2ccc3nc(-c4ccccc4F)nc-3c2)sc1-c1ccccc1 , please.
[reply] > 50 µM

[ask] # input compound: OCc1ccc2nc(Cn3ccc4nc(-c5ccccc5F)nc-4c3)sc2c1 ; wanted: its CC50 at 4 days
[reply] > 50 µM
